# experimentalDetails: JC-1 mitochondrial signal, unstimulated adipocytes – cell-based, JC-1 fluorescence, 3T3-L1 adipocytes, 24 h, 100 nL compound, profiling panel (AID 1168); further: test concentration not given here
# cond: JC-1 mitochondrial fluorescence, higher = more signal, called active from +8 up or from −8 down
measurementType: z-score
Enter a number only.

Request: Consider the molecule `COCC1=C([C@H](O)CCc2ccccc2)[C@H](CO)[C@@H]2C(=O)N(C)C(=O)[C@@H]2C1` and give its measured z-score.
Result: -0.368

Request: Which value of z-score has been reported for `CCCCC(=C=CC[C@H](O)c1ccccc1OCCO)C[C@H](O)c1ccccn1` in the records?
Result: 0.589

Request: # input molecule: CCOC(=O)C1=CCC(c2cccc(Cl)c2)O1 (configuration not stated) ; wanted: its z-score
Result: -0.627

Request: Report z-score for `O=C1O[C@@H](c2ccccc2)[C@@H](c2ccccc2)N2[C@@H](c3ccc(O)cc3)[C@]3(C(=O)Nc4ccc(C#CC5=CCCCC5)cc43)[C@@H](C(=O)Nc3nc4ccccc4s3)[C@H]12` please.
Result: 0.03

Request: z-score for `Cc1ccc(S[C@]2(C(=O)O)CC(=O)N(Cc3ccccc3C(F)(F)F)[C@@H]2c2ccc(CO)cc2)cc1` ?
Result: 0.998

Request: Reported z-score for CN1C(=O)C2C=CC(C(O)c3cccc4ccccc34)N(NC(=O)OC(C)(C)C)C2C1=O (configuration not stated) : what is it?
Result: -0.532

Request: I have this molecule here, `COCCOC(=O)N1C(=O)[C@@]2(c3cc(C#CCCO)ccc31)[C@H](C(=O)NC[C@H](O)c1ccccc1)[C@H]1C(=O)O[C@H](c3ccccc3)[C@H](c3ccccc3)N1[C@@H]2c1ccccc1OCCO` , and I need its recorded z-score.
Result: 0.833

###

# experimentalDetails: probe aNOTCH2 binding on compound microarray – biochemical, small-molecule microarray, 635/667 nm fluorescence, primary screen (AID 1121);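 further: score merges feature fluorescence read at 667 nm with its signal to noise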
# cond: higher = more signal
Consider the following compounds; for each one, report its composite z-score.
Respond with the number and no other words.

Request: Quick check: composite z-score of `COc1cccc(C)c1NC(=O)O[C@H]1[C@H](OC(=O)Nc2ccccc2)[C@H](OC(=O)Nc2ccccc2)[C@@H](OC)O[C@@H]1CO` ?
Result: 0.0564

Request: Fill in the blank: the reported composite z-score of `CCOC(=O)C1=CC[C@@H](c2ccc(N(CC)CC)cc2)N(S(=O)(=O)c2ccc(C)cc2)[C@H]1c1ccc([N+](=O)[O-])cc1` is ____.
Result: -0.0097

Request: Which composite z-score is reported for this compound? `C[N+](C)(C)CCCCNC(=O)[C@H]1C[C@H]2C(=O)NCC(=O)N2[C@H]1c1ccc(O)cc1`
Result: -0.0457

Request: I am curious: what composite z-score value has been reported for `COc1ccc([Si](C)(C)[C@@H]2[C@@H](CCO)O[C@]3(C(=O)N(Cc4ccc(N5C(=O)c6ccccc6Oc6ccccc65)cc4)c4ccccc43)[C@H]2C)cc1` ?
Result: -0.106

Request: Can you look up the measured composite z-score of `COCCCNC(=O)[C@@H]1c2ccccc2C(=O)N(Cc2cc(F)cc(C(F)(F)F)c2)[C@H]1c1ccc(CO)cc1` for me?
Result: -0.0826

Request: If you can, please state the reported composite z-score value of `CCCC=C(CCC)[C@@H](NC(=O)Cc1ccccc1)c1ccc(C(=O)OC)cc1` .
Result: 0.0754

Request: Would you kindly share the measured composite z-score for `O=c1c2ccc(Br)cc2nc(-c2ccccc2)n1Cc1cccc(O)c1` ?
Result: 0.138

Request: Param item = `COc1ccc([Si](C)(C)[C@H]2[C@H](CCn3cc(CCO)nn3)O[C@@]3(C(=O)N(Cc4cccc(N5C(=O)c6cccc7cccc5c67)c4)c4ccccc43)[C@@H]2C)cc1` ; retrieve measured composite z-score.
Result: -0.0974

Request: Recorded composite z-score for `CC(C)(C)OC(=O)CC[C@@]1(C(=O)N2CCCCC2)N=C(c2ccc(OCCCO)cc2)O[C@@H]1c1ccccc1N=[N+]=[N-]` , please?
Result: 0.127

Request: Item under review: `COCCOC(=O)N1C(=O)[C@@]2(c3cc(C#CCCO)ccc31)[C@H](C(=O)NC[C@H](O)c1ccccc1)[C@H]1C(=O)O[C@H](c3ccccc3)[C@H](c3ccccc3)N1[C@@H]2c1ccccc1OCCO` . Reported composite z-score?
Result: 0.177

Request: Which composite z-score value belongs to `CCOC(=O)C1=CC[C@@H](c2ccccc2)N(S(=O)(=O)c2ccc(C)cc2)[C@H]1C=C(C)C` ?
Result: -0.0209

Request: Request the reported composite z-score associated with `COCCOC(=O)N1C(=O)[C@@]2(c3cc(C#CCNC(N)=O)ccc31)[C@H](C(=O)N1CCCCCCC1)[C@H]1C(=O)O[C@H](c3ccccc3)[C@H](c3ccccc3)N1[C@@H]2c1ccc(OCCO)cc1`
Result: 0.0245

Request: Entry C=CC[C@@]1(C(=O)NCC(O)CO)N=C(c2ccc(OCCCO)cc2)O[C@@H]1c1ccccc1 (stereo partly drawn) : reported composite z-score = ?
Result: -0.0028

Request: // query composite z-score value for entry O=C1NC(=O)C2C1C=CC(C(O)CCc1ccccc1)N2Nc1ccccn1 (stereo not drawn)
Result: -0.0116

Request: Need composite z-score, item `COc1ccc(C(=O)Nc2ccc(CN3C(=O)[C@]4(O[C@H](CCn5cc([C@H](O)c6ccccc6)nn5)[C@@H]([Si](C)(C)c5ccc(OC)cc5)[C@@H]4C)c4ccccc43)cc2)cc1`
Result: -0.132

Request: # composite z-score lookup, item CCN(CC)c1ccc(N2CC=CC34O[C@@H]5/C=C\CCCOC(=O)C5[C@H]3C(=O)N(CCCCCCO)[C@@H]4C2=O)cc1 (stereo partly drawn)
Result: -0.145

Request: Consider the compound `NC(=O)[C@H]1[C@@H]2C(=O)O[C@@H](c3ccccc3)[C@@H](c3ccccc3)N2[C@@H](c2ccc(O)cc2)[C@]12C(=O)Nc1ccc(C#CC3(O)CCCCCC3)cc12` and give its measured composite z-score.
Result: -0.0859

Request: // query composite z-score value for entry `COC(=O)[C@@]1(Cc2ccc(OC)cc2)[C@H]2c3cc(C(=O)N(C)C)n(Cc4cc(C)n(C)n4)c3C[C@H]2CN1C(=O)c1ccccc1`
Result: 0.0736

Request: composite z-score for `C=CCOC(=O)[C@@H]1[C@H]2C(=O)O[C@H](c3ccccc3)[C@H](c3ccccc3)N2[C@H](c2ccc(OCCOC(=O)[C@@H]3C[C@@H]4C(=O)N[C@@H](CCCCNC(C)=O)C(=O)N4[C@@H]3c3ccc(O)cc3)cc2)[C@@]12C(=O)Nc1ccc(I)cc12` ?
Result: -0.0458

Request: What measured composite z-score goes with `O=C1O[C@H](c2ccccc2)[C@H](c2ccccc2)N2[C@H]1[C@@H](C(=O)N1CCN(c3ncccn3)CC1)[C@]1(C(=O)Nc3ccc(C#CCCO)cc31)[C@H]2c1ccccc1OCCO` ?
Result: -0.0533

Request: I would be grateful if you could share the reported composite z-score for `COCCCNC(=O)[C@@H]1c2ccccc2C(=O)N(c2ccc(C)cn2)[C@H]1c1ccc(CO)cc1` .
Result: -0.18

Request: Sample `COCCCNC(=O)[C@]1(Cc2ccccc2)N=C(c2ccc(OCCCO)cc2)O[C@@H]1c1ccccc1N=[N+]=[N-]` — what was its composite z-score?
Result: -0.106

Request: What measured composite z-score goes with `COCCCNC(=O)[C@@]1(Cc2ccccc2I)c2ccccc2C(=O)N(Cc2ccccc2Cl)[C@H]1c1ccc(CO)cc1` ?
Result: -0.139

Request: Given `C[C@@H]1ON(c2ccccc2)[C@H](c2ccccc2)[C@H]1C(=O)N1C(=O)OC[C@H]1Cc1ccccc1` , state its recorded composite z-score.
Result: -0.14

Request: For the compound `O=C1N(CCS(=O)(=O)c2ccccc2)c2ccccc2[C@H]2OC(c3ccc(OCCCO)cc3)=N[C@@]12CCS(=O)(=O)c1ccccc1` , what composite z-score is on record?
Result: 0.445

Request: Which composite z-score is listed for C=CCC(OC(C)=O)[C@@H]1[C@@H](N(Cc2cc3ccccc3o2)C(=O)Cc2ccc(OC)cc2)c2cc(OCCCO)ccc2N1C(=O)c1ccc(-c2ccccc2)cc1 (stereo partly drawn) ?
Result: 0.0098

Request: composite z-score for `CC(C)N1C(=O)c2ccccc2[C@](C)(C(=O)O)[C@@H]1c1ccc(CO)cc1` ?
Result: 0.16

Request: Endpoint output: composite z-score of C=CCC(OC(C)=O)[C@@H]1[C@@H](N(Cc2cccc3ccccc23)C(=O)c2ccc(C)cc2)c2cc(OCCCO)ccc2N1C(=O)c1ccc2ccccc2c1 (stereo partly drawn) . Value?
Result: -0.0924

###

# experimentalDetails: growth of efflux-deficient E. coli DRC39 – strain DRC39, OD650, 24 h, E. coli filamentation inducers, primary screen (AID 1178);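 further: growth measured as culture turbidity by optical density at 650 nm; test concentration not given here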
# cond: E. coli DRC39 acrAB, higher = more signal, called active from +8 up or from −8 down
condition met means recorded z-score is 0.08 or above; condition not met means it is below 0.08.

Request: Entry `COCCCNC(=O)[C@@]1(Cc2ccccc2I)c2ccccc2C(=O)N(Cc2ccccc2Cl)[C@H]1c1ccc(CO)cc1` : is its z-score no less than 0.08?
Result: condition met

Request: API: above_or_equal(metric=z-score, cutoff=0.08) for item `O=C1N(CCS(=O)(=O)c2ccccc2)c2ccccc2[C@H]2OC(c3ccc(OCCCO)cc3)=N[C@@]12CCS(=O)(=O)c1ccccc1`
Result: condition met

Request: Determine whether measured z-score meets or exceeds 0.08 for CCCc1cc2c(n1Cc1ccc(OC)cc1)C(C)C1CN(C(=O)c3ccccc3)C(C)(C(=O)OC)C21 (stereo not drawn)
Result: condition not met

Request: Is z-score at least 0.08? Consider `O=C1c2ccccc2[C@](Cc2ccccc2I)(C(=O)NCC(F)(F)F)[C@H](c2ccc(CO)cc2)N1Cc1ccccc1`
Result: condition met

Request: Check the entry `C=CCOC(=O)[C@H]1[C@@H]2C(=O)O[C@@H](c3ccccc3)[C@@H](c3ccccc3)N2[C@@H](c2ccc(OCCOC(=O)[C@H]3C[C@H]4C(=O)N[C@@H](CCCCN(C)C)C(=O)N4[C@H]3c3ccc(O)cc3)cc2)[C@]12C(=O)Nc1ccccc12` : does z-score equal or exceed 0.08?
Result: condition met

Request: Check if z-score >= 0.08 (inclusive). Item: `C[C@@]1([C@@H](NC(=O)c2cccs2)c2ccc(-c3ccccc3)cc2)C[C@H]1C1CCCCC1`
Result: condition not met

Request: Could you tell me if the measured z-score of `C#CCNS(=O)(=O)N(C)C` reaches 0.08 or more?
Result: condition not met

Request: Determine whether this molecule has z-score no lower than 0.08: `C=C(C(=O)CC[C@H](OC(=O)c1cccnc1)c1ccc(OCCO)cc1)C(C)C`
Result: condition not met

Request: # check: z-score of `O=C(NCc1ccccc1)[C@]1(Cc2ccccc2)N=C(c2ccc(OCCCO)cc2)O[C@@H]1c1ccccc1` is greater than or equal to 0.08
Result: condition met

Request: Tell me whether z-score is at least 0.08 here: `C=CCOC(=O)[C@@H]1[C@H]2C(=O)O[C@H](c3ccccc3)[C@H](c3ccccc3)N2[C@H](c2ccc(OCCOC(=O)[C@@H]3C[C@@H]4C(=O)N5CCC[C@H]5C(=O)N4[C@@H]3c3cccc(OCCO)c3)cc2)[C@@]12C(=O)Nc1ccc(I)cc12`
Result: condition met

Request: Quick check, z-score >= 0.08? `COCCCNC(=O)[C@]1(Cc2ccccc2)N=C(c2ccc(OCCCO)cc2)O[C@@H]1c1ccccc1N=[N+]=[N-]`
Result: condition met

Request: Say whether `COCCOC(=O)N1C(=O)[C@@]2(c3cc(C#CCCO)ccc31)[C@H](c1ccc(OCCO)cc1)N1[C@H](c3ccccc3)[C@H](c3ccccc3)OC(=O)[C@H]1[C@@H]2C(=O)N1CCc2cc(OC)c(OC)cc2C1` shows z-score of 0.08 or more.
Result: condition met

Request: z-score >= 0.08 for `COCCOC(=O)N1C(=O)[C@@]2(c3cc(C#CCC(C(=O)OC)C(=O)OC)ccc31)[C@H](c1ccc(OCCO)cc1)N1[C@H](c3ccccc3)[C@H](c3ccccc3)OC(=O)[C@H]1[C@@H]2C(N)=O` ?
Result: condition not met

Reference for the values: PubChem BioAssay
